Data provenance: patent US20250179000A1

- measured_on: Rat mGlu3 (Rattus norvegicus)
- Sequence (P31422 23-879): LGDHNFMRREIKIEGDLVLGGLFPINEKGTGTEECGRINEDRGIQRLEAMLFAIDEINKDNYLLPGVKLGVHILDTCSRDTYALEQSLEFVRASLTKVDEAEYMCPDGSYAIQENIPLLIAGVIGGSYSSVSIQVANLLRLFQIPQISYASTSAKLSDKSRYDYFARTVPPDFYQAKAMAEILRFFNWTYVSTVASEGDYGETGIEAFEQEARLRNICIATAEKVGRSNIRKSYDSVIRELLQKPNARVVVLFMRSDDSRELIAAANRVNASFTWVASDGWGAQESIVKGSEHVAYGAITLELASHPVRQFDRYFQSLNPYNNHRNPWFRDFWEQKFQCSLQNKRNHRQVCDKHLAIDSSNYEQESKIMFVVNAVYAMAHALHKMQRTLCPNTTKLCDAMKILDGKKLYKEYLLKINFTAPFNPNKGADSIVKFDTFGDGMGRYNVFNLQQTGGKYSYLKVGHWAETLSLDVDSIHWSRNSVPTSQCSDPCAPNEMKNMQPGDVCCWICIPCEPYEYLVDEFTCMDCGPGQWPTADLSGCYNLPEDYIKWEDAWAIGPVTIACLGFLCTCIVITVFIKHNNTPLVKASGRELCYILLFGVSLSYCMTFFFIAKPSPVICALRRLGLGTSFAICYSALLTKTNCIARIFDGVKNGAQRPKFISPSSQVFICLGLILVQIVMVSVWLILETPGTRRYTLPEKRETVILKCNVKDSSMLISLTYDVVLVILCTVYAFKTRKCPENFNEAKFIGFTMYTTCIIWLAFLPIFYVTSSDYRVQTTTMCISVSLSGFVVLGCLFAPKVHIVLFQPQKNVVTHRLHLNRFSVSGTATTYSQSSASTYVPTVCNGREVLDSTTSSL
- test: mGlu receptor in vitro assay (thallium flux through GIRK channels / calcium assay), rat mGlu3
- measurement_conditions: PAM potency with EC20 glutamate
pEC50: −log10 of the molar value.
measured_property: pEC50

Below, each entry is followed by its recorded pEC50 result.
compound	pEC50
Cc1c(OCc2cnc(-c3cccc(S(N)(=O)=O)c3)cn2)ccc(C(=O)CC(C)(C)C)c1O	< 4.52
CCCC(=O)c1ccc(OCC[S+]([O-])CCOc2cccc(C(=O)O)c2C)c(C)c1O (stereo not drawn)	< 4.52
CCCC(=O)c1ccc(OCCCCCOc2cccc(C(=O)O)c2C)c(C)c1O	< 5.00
CCCC(=O)c1ccc(OCCS(=O)(=O)CCOc2cccc(C(=O)O)c2C)c(C)c1O	< 4.52
Cc1c(OCCCCCOc2cccc(C(=O)O)c2C)cccc1C(=O)O	< 4.52

### Prompt Output pEC50 of `CCCC(=O)c1ccc(OCC2(COc3cccc(C(=O)O)c3C)CC2)c(C)c1O`
### Response < 4.52

### Prompt Report measured pEC50; entry is COc1ccc(C(=O)O)cc1OCCCCOc1ccc(C(O)CC(C)(C)C)c(O)c1C (stereo not drawn)
### Response < 5.00

### Prompt Report pEC50 for `CCCC(=O)c1ccc(OCC(=O)c2cccc(-c3cccc(C(=O)O)c3C)c2)c(C)c1O`
### Response < 4.52

### Prompt For the compound `Cc1c(OCc2cccc(-c3cccc(S(N)(=O)=O)c3)c2)ccc(C(=O)CC(C)(C)C)c1O` , give its measured pEC50 value.
### Response < 4.52
